test details: NCI Yeast Anticancer Drug Screen. Data for the mlh1 rad18 strain (AID 175)
reported conditions: S. cerevisiae mlh1 rad18 strain growth inhibition; at 5.0 µM (retest, dose inferred, filed as 0.5)
This is part of a sample that, as a whole, favours compounds with a hit. Of some 79,000 tested, about 15% had one in any assay. Activity calls are given as the source filed them. Rule as the data show it: active = growth inhibition above about 70%; inactive = the rest.
Returns: one label drawn from active, inactive

How did this test come out for CCO[C@@H]([CH2][Hg][Cl])[C@](C)([CH2][Hg][Cl])OCC ?
active

How did this test come out for CCOC(=O)NP(=O)(NNc1ccccc1)NNc1ccccc1 ?
active

How did this test come out for O=[N+]([O-])c1ccc(SP(=S)(c2ccccc2)c2ccccc2)c([N+](=O)[O-])c1 ?
inactive

How did this test come out for CN(C=O)NC(=O)N(CCCl)N=O ?
inactive

How did this test come out for CC1(C)N=C(N)N=C(N)N1c1ccc(OCC(=O)Nc2cccc(S(=O)(=O)F)c2)c(Cl)c1 ?
inactive
